Species: Homo sapiens
Experiment: Selectivity index, ratio of Ki for recombinant human CB1 receptor to Ki for recombinant human CB2 receptor
MEASUREMENT_NAME: Ratio Ki
Answer with a bare number; do not write a unit.

Below are worked cases with known answers.
MOL_SMILES: Cc1c(C(=O)NC2CCCCC2)nn(-c2ccc(Cl)cc2Cl)c1-n1c(Cl)ccc1Cl
Ratio Ki: 0.49

MOL_SMILES: CCc1c(C(=O)NCc2ccc(Cl)c(Cl)c2)nn(-c2ccc(Cl)cc2Cl)c1-n1cccc1
Ratio Ki: 0.11

MOL_SMILES: CCc1c(C(=O)NCc2ccc(Cl)c(Cl)c2)nn(-c2ccc(Cl)cc2Cl)c1-n1c(C)ccc1C
Ratio Ki: 0.94

MOL_SMILES: Cc1c(C(=O)NCc2ccc(Cl)c(Cl)c2)nn(-c2ccc(Cl)cc2Cl)c1-n1c(Cl)ccc1Cl
Ratio Ki: 0.49

Let's switch to this compound now.
Form: compound = CCc1c(C(=O)NC2CCCCC2)nn(-c2ccc(Cl)cc2Cl)c1-n1cccc1 ; Ratio Ki = 0.19

----------
Target: Cannabinoid receptor 1 (Homo sapiens)
Sequence (P21554 whole entry): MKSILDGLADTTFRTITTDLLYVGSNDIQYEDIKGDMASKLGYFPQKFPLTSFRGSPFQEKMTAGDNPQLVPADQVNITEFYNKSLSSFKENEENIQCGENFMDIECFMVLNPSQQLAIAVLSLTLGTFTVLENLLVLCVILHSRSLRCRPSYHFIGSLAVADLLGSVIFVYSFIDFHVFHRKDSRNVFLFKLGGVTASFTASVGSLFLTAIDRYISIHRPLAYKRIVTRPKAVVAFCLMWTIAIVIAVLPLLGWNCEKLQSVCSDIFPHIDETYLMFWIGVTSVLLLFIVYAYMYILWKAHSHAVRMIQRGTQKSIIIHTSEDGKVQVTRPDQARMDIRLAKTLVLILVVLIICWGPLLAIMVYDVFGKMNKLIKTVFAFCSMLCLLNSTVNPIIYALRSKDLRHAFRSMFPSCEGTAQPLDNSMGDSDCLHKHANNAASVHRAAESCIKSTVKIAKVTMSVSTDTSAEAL
Test: Displacement of [3H]CP-55,940 from recombinant human CB1 receptor expressed in HEK cells
MEASUREMENT_NAME: Ki (nM)
Provide only the numeric value, understood in nM.

Below are worked cases with known answers.
MOL_SMILES: Cc1c(C(=O)NCc2ccc(Cl)c(Cl)c2)nn(-c2ccc(Cl)cc2Cl)c1-n1cc2c(c1)CCCC2
RECORDED_VALUE: 45.9
--
MOL_SMILES: Cc1c(C(=O)NC2CCCCC2)nn(-c2ccc(Cl)c(Cl)c2)c1-n1cccc1Cl
RECORDED_VALUE: 8.6
--
MOL_SMILES: CCc1c(C(=O)NCc2ccc(Cl)c(Cl)c2)nn(-c2ccc(Cl)cc2Cl)c1-n1c(C)ccc1C
RECORDED_VALUE: 56.1
--
MOL_SMILES: CCc1ccc(CC)n1-c1c(C)c(C(=O)NC2CCCCC2)nn1-c1ccc(Cl)c(Cl)c1
RECORDED_VALUE: 136
--
MOL_SMILES: Cc1c(C(=O)NCc2ccc(Cl)c(Cl)c2)nn(-c2ccc(Cl)cc2Cl)c1-n1c(Cl)ccc1Cl
RECORDED_VALUE: 66.1
--
MOL_SMILES: CCc1c(C(=O)NC2CCCCC2)nn(-c2ccc(Cl)c(Cl)c2)c1-n1c(C)ccc1C
RECORDED_VALUE: 48
--
MOL_SMILES: CCc1c(C(=O)NC2CCCCC2)nn(-c2ccc(Cl)cc2Cl)c1-n1cccc1
RECORDED_VALUE: 3
--
MOL_SMILES: Cc1c(C(=O)NC2CCCCC2)nn(-c2ccc(Cl)cc2Cl)c1-n1cccc1Cl
RECORDED_VALUE: 7.7
--
MOL_SMILES: Cc1c(C(=O)NCc2ccc(Cl)c(Cl)c2)nn(-c2ccc(Cl)cc2Cl)c1-n1cccc1Cl
RECORDED_VALUE: 25.2
--
MOL_SMILES: Cc1c(C(=O)NCc2ccc(Cl)c(Cl)c2)nn(-c2ccc(Cl)c(Cl)c2)c1-n1c(Cl)ccc1Cl
RECORDED_VALUE: 55.6

Form: compound = CCc1c(C(=O)NCc2ccc(Cl)c(Cl)c2)nn(-c2ccc(Cl)c(Cl)c2)c1-n1cccc1 ; Ki = 454

Form: compound = CCc1c(C(=O)NC2CCCCC2)nn(-c2ccc(Cl)c(Cl)c2)c1-n1cccc1 ; Ki = 15.3

Form: compound = Cc1c(C(=O)NC2CCCCC2)nn(-c2ccc(Cl)cc2Cl)c1-n1c(Cl)ccc1Cl ; Ki = 9.4

----------
Species on record: Homo sapiens
Test: Selectivity index, ratio of Ki for recombinant human CB2 receptor to Ki for recombinant human CB1 receptor
MEASUREMENT_NAME: Ratio Ki
Answer with a bare number; do not write a unit.

Below are worked cases with known answers.
MOL_SMILES: Cc1c(C(=O)NC2CCCCC2)nn(-c2ccc(Cl)cc2Cl)c1-n1cc2c(c1)CCCC2
RECORDED_VALUE: 164
//
MOL_SMILES: Cc1c(C(=O)NCc2ccc(Cl)c(Cl)c2)nn(-c2ccc(Cl)c(Cl)c2)c1-n1c(Cl)ccc1Cl
RECORDED_VALUE: 2.9
//
MOL_SMILES: Cc1c(C(=O)NC2CCCCC2)nn(-c2ccc(Cl)cc2Cl)c1-n1cccc1Cl
RECORDED_VALUE: 2.4
//
MOL_SMILES: CCc1c(C(=O)NC2CCCCC2)nn(-c2ccc(Cl)c(Cl)c2)c1-n1cccc1
RECORDED_VALUE: 0.033
//
MOL_SMILES: Cc1c(C(=O)NC2CCCCC2)nn(-c2ccc(Cl)cc2Cl)c1-n1c(Cl)ccc1Cl
RECORDED_VALUE: 2
//
MOL_SMILES: CCc1c(C(=O)NC2CCCCC2)nn(-c2ccc(Cl)cc2Cl)c1-n1cccc1
RECORDED_VALUE: 5.3
//
MOL_SMILES: Cc1c(C(=O)NC2CCCCC2)nn(-c2ccc(Cl)c(Cl)c2)c1-n1cccc1Cl
RECORDED_VALUE: 0.11
//
MOL_SMILES: CCc1c(C(=O)NCc2ccc(Cl)c(Cl)c2)nn(-c2ccc(Cl)cc2Cl)c1-n1c(C)ccc1C
RECORDED_VALUE: 1.06

Form: compound = Cc1c(C(=O)NCc2ccc(Cl)c(Cl)c2)nn(-c2ccc(Cl)cc2Cl)c1-n1c(Cl)ccc1Cl ; Ratio Ki = 2

Form: compound = Cc1c(C(=O)NCc2ccc(Cl)c(Cl)c2)nn(-c2ccc(Cl)c(Cl)c2)c1-n1cccc1Cl ; Ratio Ki = 0.73

Form: compound = Cc1c(C(=O)NCc2ccc(Cl)c(Cl)c2)nn(-c2ccc(Cl)cc2Cl)c1-n1cc2c(c1)CCCC2 ; Ratio Ki = 1.6

Form: compound = CCc1c(C(=O)NCc2ccc(Cl)c(Cl)c2)nn(-c2ccc(Cl)c(Cl)c2)c1-n1c(C)ccc1C ; Ratio Ki = 0.118

Form: compound = CCc1c(C(=O)NC2CCCCC2)nn(-c2ccc(Cl)c(Cl)c2)c1-n1c(C)ccc1C ; Ratio Ki = 0.035

----------
Organism: Homo sapiens
Experiment: Selectivity index, ratio of Ki for recombinant human CB1 receptor to Ki for recombinant human CB2 receptor
Entry class follows Ratio Ki: lower segment (below 0.3), middle segment (0.3 to below 20), upper segment (20 or more)

**Query** Category of CCc1c(C(=O)NC2CCCCC2)nn(-c2ccc(Cl)c(Cl)c2)c1-n1c(C)ccc1C :
**Result** upper segment

**Query** Category of CCc1c(C(=O)NCc2ccc(Cl)c(Cl)c2)nn(-c2ccc(Cl)c(Cl)c2)c1-n1c(C)ccc1C :
**Result** middle segment

**Query** Category of Cc1c(C(=O)NCc2ccc(Cl)c(Cl)c2)nn(-c2ccc(Cl)cc2Cl)c1-n1cc2c(c1)CCCC2 :
**Result** middle segment

**Query** Category of CCc1c(C(=O)NCc2ccc(Cl)c(Cl)c2)nn(-c2ccc(Cl)c(Cl)c2)c1-n1cccc1 :
**Result** middle segment

**Query** Category of Cc1c(C(=O)NC2CCCCC2)nn(-c2ccc(Cl)cc2Cl)c1-n1cc2c(c1)CCCC2 :
**Result** lower segment

**Query** Category of CCc1c(C(=O)NC2CCCCC2)nn(-c2ccc(Cl)cc2Cl)c1-n1c(C)ccc1C :
**Result** lower segment

**Query** Category of Cc1c(C(=O)NCc2ccc(Cl)c(Cl)c2)nn(-c2ccc(Cl)c(Cl)c2)c1-n1cccc1Cl :
**Result** middle segment

**Query** Category of Cc1c(C(=O)NCc2ccc(Cl)c(Cl)c2)nn(-c2ccc(Cl)cc2Cl)c1-n1cccc1Cl :
**Result** lower segment

**Query** Category of CCc1c(C(=O)NC2CCCCC2)nn(-c2ccc(Cl)c(Cl)c2)c1-n1cccc1 :
**Result** upper segment

----------
Organism: Homo sapiens
Assay: Selectivity index, ratio of Ki for recombinant human CB1 receptor to Ki for recombinant human CB2 receptor
Reported Ratio Ki by item:
Answer with a bare number; do not write a unit.

MOL_SMILES: Cc1c(C(=O)NCc2ccc(Cl)c(Cl)c2)nn(-c2ccc(Cl)c(Cl)c2)c1-n1c(Cl)ccc1Cl
MEASUREMENT_NAME: Ratio Ki
RECORDED_VALUE: 0.34

MOL_SMILES: Cc1c(C(=O)NC2CCCCC2)nn(-c2ccc(Cl)cc2Cl)c1-n1cccc1Cl
MEASUREMENT_NAME: Ratio Ki
RECORDED_VALUE: 0.4

MOL_SMILES: Cc1c(C(=O)NC2CCCCC2)nn(-c2ccc(Cl)c(Cl)c2)c1-n1cccc1Cl
MEASUREMENT_NAME: Ratio Ki
RECORDED_VALUE: 9.56

Form: compound = Cc1c(C(=O)NC2CCCCC2)nn(-c2ccc(Cl)c(Cl)c2)c1-n1c(Cl)ccc1Cl ; Ratio Ki = 4.31

Form: compound = CCc1ccc(CC)n1-c1c(C)c(C(=O)NC2CCCCC2)nn1-c1ccc(Cl)c(Cl)c1 ; Ratio Ki = 0.33
